# shrunken log2 fold change listing for each entry below
Test system: Escherichia coli TOP10
PROTOCOL_TEXT: shrunken log2 fold change of peptide-encoding DNA abundance (4.5 h post-induction vs induction); higher = less antimicrobial activity (less host growth inhibition)
SETTINGS: time post-induction: 4.5 h; library: site-saturation at positions 5, 18, 19, 20
PROPERTY_NAME: shrunken log2 fold change

• RRIRCRPPRLPRPRPRPSWCPRP = -0.417
• RRIRHRPPRLPRPRPRPMVFPRP = 0.14
• RRIRCRPPRLPRPRPRPQQEPRP = -0.051
• RRIRIRPPRLPRPRPRPKTEPRP = -0.413
• RRIRCRPPRLPRPRPRPMPGPRP = 0.0112
• RRIRGRPPRLPRPRPRPWYGPRP = -0.242
• RRIRTRPPRLPRPRPRPKTLPRP = 0.0791
• RRIRTRPPRLPRPRPRPECQPRP = 0.0443

* * *

Tested on: Escherichia coli TOP10
PROTOCOL_TEXT: shrunken log2 fold change of peptide-encoding DNA abundance (4.5 h post-induction vs induction); higher = less antimicrobial activity (less host growth inhibition)
SETTINGS: time post-induction: 4.5 h; library: site-saturation at positions 5, 18, 19, 20
Entries are grouped by shrunken log2 fold change into these classes: lower: < -0.03; middle: ≥ -0.03 and < 0.2; upper: ≥ 0.2

* RRIRNRPPRLPRPRPRPAGNPRP | middle
* RRIRARPPRLPRPRPRPERIPRP | middle
* RRIRHRPPRLPRPRPRPGYHPRP | lower
* RRIRDRPPRLPRPRPRPYFNPRP | lower
* RRIRSRPPRLPRPRPRPSITPRP | lower
* RRIRARPPRLPRPRPRPWVVPRP | middle
* RRIRNRPPRLPRPRPRPRFCPRP | upper
* RRIRKRPPRLPRPRPRPQMQPRP | middle
* RRIRPRPPRLPRPRPRPGAYPRP | middle
* RRIRYRPPRLPRPRPRPENPPRP | lower
* RRIRLRPPRLPRPRPRPYHFPRP | lower
* RRIRVRPPRLPRPRPRPHGNPRP | lower
* RRIRLRPPRLPRPRPRPAATPRP | upper
* RRIRRRPPRLPRPRPRPRQFPRP | upper
* RRIRFRPPRLPRPRPRPGHGPRP | middle
* RRIRARPPRLPRPRPRPWVAPRP | upper

* * *

# shrunken log2 fold change listing for each entry below
Test system: Escherichia coli TOP10
PROTOCOL_TEXT: shrunken log2 fold change of peptide-encoding DNA abundance (4.5 h post-induction vs induction); higher = less antimicrobial activity (less host growth inhibition)
SETTINGS: time post-induction: 4.5 h; library: site-saturation at positions 5, 18, 19, 20
PROPERTY_NAME: shrunken log2 fold change

• RRIRDRPPRLPRPRPRPANQPRP = 0.253
• RRIRFRPPRLPRPRPRPAWFPRP = 0.122
• RRIRLRPPRLPRPRPRPVKEPRP = 0.0114
• RRIRRRPPRLPRPRPRPCRVPRP = 0.0136

* * *

System: Escherichia coli TOP10;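 further: peptides expressed intracellularly from a pBAD plasmid library in pooled LB shake-flask culture, induced with 0.3% L-arabinose, DNA abundance read by NGS, three biological replicates, DESeq2 with apeglm shrinkage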
PROTOCOL_TEXT: shrunken log2 fold change of peptide-encoding DNA abundance (4.5 h post-induction vs induction); higher = less antimicrobial activity (less host growth inhibition)
SETTINGS: time post-induction: 4.5 h; library: site-saturation at positions 5, 18, 19, 20
Lab note: anything with shrunken log2 fold change at or over 0.08 counts as Criterion met; the rest go in Criterion not met.

* RRIRQRPPRLPRPRPRPPKSPRP | Criterion met
* RRIRTRPPRLPRPRPRPTCHPRP | Criterion not met
* RRIRSRPPRLPRPRPRPTARPRP | Criterion met
* RRIRNRPPRLPRPRPRPTVIPRP | Criterion not met
* RRIRMRPPRLPRPRPRPSIHPRP | Criterion not met
* RRIRFRPPRLPRPRPRPIVIPRP | Criterion not met
* RRIRNRPPRLPRPRPRPEGFPRP | Criterion not met
* RRIRLRPPRLPRPRPRPEIHPRP | Criterion not met
* RRIRCRPPRLPRPRPRPFKFPRP | Criterion not met
* RRIRGRPPRLPRPRPRPNINPRP | Criterion met
* RRIRGRPPRLPRPRPRPTSHPRP | Criterion met
* RRIRDRPPRLPRPRPRPVVDPRP | Criterion met
* RRIRERPPRLPRPRPRPASKPRP | Criterion not met
* RRIRERPPRLPRPRPRPPDAPRP | Criterion met
* RRIRCRPPRLPRPRPRPCTEPRP | Criterion not met
* RRIRMRPPRLPRPRPRPKLDPRP | Criterion met
* RRIRQRPPRLPRPRPRPDTRPRP | Criterion not met
* RRIRIRPPRLPRPRPRPQIIPRP | Criterion not met
* RRIRFRPPRLPRPRPRPPCCPRP | Criterion met
* RRIRQRPPRLPRPRPRPQNSPRP | Criterion not met
* RRIRDRPPRLPRPRPRPHANPRP | Criterion not met

All figures here come from the supplement of paper PMC9112550.
